Test system: KM12 colon
Test: NCI tumour cell line growth inhibition, 48 h
reported endpoint: TGI

Nc1c(C(=O)O)nnc2cc(Cl)c(Cl)cc12 :: > 100 µM
N#Cc1cc(C#N)c(N)nc1N :: > 100 µM
CC(=O)O[C@H]1C(=O)[C@@]2(C)C(C(OC(=O)c3ccccc3)[C@]3(O)C[C@H](OC(=O)C(OC(=O)CCCC(=O)NCCCN(C)C)C(NC(=O)c4ccccc4)c4ccccc4)C(C)=C1C3(C)C)C1(OC(C)=O)COC1C[C@@H]2O (some centres undefined) :: 3.19 µM

TGI measured on `CCN(CC)C(=O)Cc1c(C(=O)N(CC)CC)c(=O)nc2sccn12` = > 100 µM

TGI measured on `O=C1CSCc2sccc21` = > 100 µM

TGI measured on `CCOC(=O)c1nc2ccc(C(F)(F)F)cc2nc1NCc1ccc(OC)cc1` = > 100 µM

TGI measured on `CCN(CC)c1ccc(/C=N/NC(=O)CSc2nc3ccccc3c(=O)n2CCc2ccc(S(N)(=O)=O)cc2)c(O)c1` = > 100 µM

TGI measured on CC(NC(=O)/C(=C/c1ccccc1)NC(=O)c1ccccc1)C(=O)O (centres undefined) = > 100 µM

TGI measured on CCN1C(=S)N(c2ccccc2)C2NC(=S)N(/N=C/C=C/c3ccccc3OC)C21 (centres undefined) = > 64.8 µM

====

Tested on: HS 578T breast
Test: NCI tumour cell line growth inhibition, 48 h
reported endpoint: TGI

Recorded TGI, per entry:
Cc1cc(S(=O)(=O)Nc2nc3ccccc3o2)c(SCc2ccccc2)cc1Cl :: 78.9 µM
O=c1cc(N=Nc2ccc(Br)cc2)[nH]c(=S)[nH]1 :: > 100 µM

TGI measured on CCC(C)[C@H]1O[C@]2(CC[C@@H]1C)C[C@@H]1C[C@@H](C/C=C(\C)[C@@H](OC3C[C@H](OC)C(O[C@H]4C[C@H](OC)[C@@H](O)[C@H](C)O4)[C@H](C)O3)[C@@H](C)/C=C/C=C3\CO[C@@H]4[C@H](O)C(C)=C[C@@H](C(=O)O1)[C@]34O)O2 (stereo partly drawn) = 20.7 µM

TGI measured on `OCCN1CCN(CCCN2c3ccccc3Sc3ccc(Cl)cc32)CC1` = 5.71 µM

TGI measured on Cn1cnc([N+](=O)[O-])c1Sc1nc(N)nc2c1ncn2C1OC(CO)C(O)C1O (stereo not drawn) = > 100 µM

====

Reported TGI is given for each of the following compounds.
Test system: UO-31 renal
Test: NCI tumour cell line growth inhibition, 48 h

Recorded TGI, per entry:
COc1ccc(C2NC(=S)Nc3c2c(=O)oc2c3ccc3ccccc32)cc1 (stereo not given) :: > 100 µM
O=C(Oc1cccc2cccnc12)c1cc2c(cc1Cl)SC(N(c1ccc(F)cc1)S(=O)(=O)c1ccc(Br)s1)=NS2(=O)=O :: > 100 µM
N#Cc1c(-c2ccc(Cl)c(Cl)c2)c(-c2ccc(Cl)c(Cl)c2)nn(CC(=O)O)c1=O :: > 100 µM
c1ccc(-c2nnn3c2NC2=C(CCCC2)C3c2ccccc2)cc1 (stereo not given) :: 34.1 µM

Form field, TGI with UO-31 renal, item `Cc1cc(NCCCCCCCCNc2cc(C)nc3cc(N)ccc23)c2ccc(N)cc2n1` : > 100 µM

Form field, TGI with UO-31 renal, item `Nc1nc2c3nc(Nc4ccccc4)sc3nc(=S)n2c2sc(Nc3ccccc3)nc12` : > 100 µM

Form field, TGI with UO-31 renal, item CCOC(=O)C1Cc2c(cc3c4c(cccc24)N(C(C)=O)C3)N(C)C1 (stereo not given) : > 100 µM

Form field, TGI with UO-31 renal, item `CCOC(=O)c1ccc(NC(=O)Nc2nncs2)cc1` : 28.7 µM

Form field, TGI with UO-31 renal, item `COC(=O)/C=C1\C(=O)N(C(C)=O)c2ccc(Br)cc21` : 3.91 µM

Form field, TGI with UO-31 renal, item `Clc1ccccc1/C=c1\nc(-c2ccccc2)n2c1nc1ccccc12` : > 100 µM

====

Reported TGI is given for each of the following molecules.
Tested on: T-47D breast
Experiment: NCI tumour cell line growth inhibition, 48 h
Express your answer in µM, writing the number without its unit.

CC(=O)O[C@H]1C(=O)[C@@]2(C)C(C(OC(=O)c3ccccc3)[C@]3(O)C[C@H](OC(=O)C(OC(=O)CCCC(=O)NCCCN(C)C)C(NC(=O)c4ccccc4)c4ccccc4)C(C)=C1C3(C)C)C1(OC(C)=O)COC1C[C@@H]2O (stereo partly drawn) :: 47.8

TGI measured on `Cc1ccc(NC(Nc2ccc(C)cc2C)=C(C(Cl)=C(Cl)Cl)[N+](=O)[O-])c(C)c1` = 32.1

TGI measured on `c1ccc2c(Cc3[nH]c4ccccc4c3Cc3c[nH]c4ccccc34)c[nH]c2c1` = 12.8

TGI measured on CCC(C)[C@H]1O[C@]2(CC[C@@H]1C)C[C@@H]1C[C@@H](C/C=C(\C)[C@@H](OC3C[C@H](OC)C(O[C@H]4C[C@H](OC)[C@@H](O)[C@H](C)O4)[C@H](C)O3)[C@@H](C)/C=C/C=C3\CO[C@@H]4[C@H](O)C(C)=C[C@@H](C(=O)O1)[C@]34O)O2 (stereo partly drawn) = 3.35

TGI measured on `C=CCN(c1cc(OCc2ccccc2)c2[nH]cc(C)c2c1)S(C)(=O)=O` = 60.6

====

System: A549 NSCLC
Experiment: NCI tumour cell line growth inhibition, 48 h
Reported TGI is given for each of the following molecules.

Form field, TGI with A549 NSCLC, item CC(C)(C)OC(=O)NC(CCCCNC(=O)OCc1ccccc1)C(=O)NCCNc1ccc(NCCNC(=O)C(CCCCNC(=O)OCc2ccccc2)NC(=O)OC(C)(C)C)c2c1C(=O)c1ccccc1C2=O (stereo not drawn) : > 100 µM

Form field, TGI with A549 NSCLC, item `N#Cc1c(-c2ccc(Cl)c(Cl)c2)c(-c2ccc(Cl)c(Cl)c2)nn(CC(=O)O)c1=O` : > 100 µM

Form field, TGI with A549 NSCLC, item `Nc1ccc2c(O)cc(=O)[nH]c2n1` : > 100 µM

Form field, TGI with A549 NSCLC, item `CC(C)OP(=O)(OC(C)C)/C(Cl)=N/Nc1ccc([N+](=O)[O-])cc1` : > 100 µM

Form field, TGI with A549 NSCLC, item CC(Nc1ncc2c(n1)-c1ccccc1OC2)C(=O)O (stereo not drawn) : > 100 µM

Form field, TGI with A549 NSCLC, item `COc1cc(Nc2nc3cc(N)cc(N)c3nc2-c2ccccc2)cc(OC)c1OC` : > 100 µM

Form field, TGI with A549 NSCLC, item `COc1ccc2nc3c(C(=O)NCCN(C)C)cccc3cc2c1` : 5.26 µM

====

Reported TGI is given for each of the following compounds.
Tested on: MDA-N
Experiment: NCI tumour cell line growth inhibition, 48 h
Where a SMILES comes first, the peptide text is derived from it. [ ]: non-standard residue; d: D form. The star is where a group is joined. ξ: configuration not given here. ξF = NC(Cc1ccccc1)C(=O)O; Cbz = O=C(OCc1ccccc1)*; Aib = CC(C)(N)C(=O)O; NHNH2 = NN*

Recorded TGI, per entry:
CN(C)CCCc1cccc2[nH]c3c(c12)CN(C)CC3 :: > 100 µM
CC(C)(NC(=O)OCc1ccccc1)C(=O)NC(Cc1ccccc1)C(=O)NN (centres undefined) (Cbz-[Aib]-[ξF]-NHNH2) :: > 100 µM
CC(C)=CCC[C@]1(C)C=Cc2c(O)c3c(c(CC=C(C)C)c2O1)O[C@]12C(=C[C@@H]4CC1C(C)(C)O[C@@]2(C/C=C(/C)C(=O)O)C4=O)C3=O :: 4.59 µM
CCOC(=O)C1Cc2c(cc3c4c(cccc24)N(C(C)=O)C3)N(C)C1 (centres undefined) :: 3.29 µM

TGI measured on CC#CC(O)(C(=O)OCCCN(C)C)C1CCCCC1 (centres undefined) = > 100 µM

TGI measured on `O=C1C[C@H](c2ccccc2)O[C@@H](c2ccccc2)C1` = > 100 µM

TGI measured on `O=c1[nH]c2nnc(COc3ccc(Cl)cc3Cl)n2nc1Cc1ccccc1` = > 100 µM

TGI measured on COc1ccc(C2NC(=S)Nc3c2c(=O)oc2c3ccc3ccccc32)cc1 (centres undefined) = > 100 µM

TGI measured on `O=c1cc(N=Nc2ccc(Br)cc2)[nH]c(=S)[nH]1` = > 100 µM

====

Test system: CCRF-CEM leukemia
Experiment: NCI tumour cell line growth inhibition, 48 h
Reported GI50 is given for each of the following compounds.

Recorded GI50, per entry:
COc1cc(Nc2nc3cc(N)cc(N)c3nc2-c2ccccc2)cc(OC)c1OC :: 4.4 µM
CCCCCCCCCCCCOC1C(CNC(=O)C2OC3OC(C)(C)OC3C2NC(=O)Nc2ccc(CC(=O)OC)cc2)OC2OC(C)(C)OC21 (centres undefined) :: > 19.6 µM
Cc1cccc(N(C)C(=O)[C@@H]2[C@H](O)CCN2c2nc(C)cc(C(F)(F)F)c2C#N)c1 :: 25.8 µM

Would you kindly look at the next entry?
GI50 measured on `O=C(Oc1cccc2cccnc12)c1cc2c(cc1Cl)SC(N(c1ccc(F)cc1)S(=O)(=O)c1ccc(Br)s1)=NS2(=O)=O` = 30.5 µM

Origin of measurements: PubChem BioAssay (NCI)
